# Assay system: T1, human CD20 expressed on Raji cells (CD3-, CD20+ human B-cell line) (human, UniProt P11836 1-297)
# T1 sequence: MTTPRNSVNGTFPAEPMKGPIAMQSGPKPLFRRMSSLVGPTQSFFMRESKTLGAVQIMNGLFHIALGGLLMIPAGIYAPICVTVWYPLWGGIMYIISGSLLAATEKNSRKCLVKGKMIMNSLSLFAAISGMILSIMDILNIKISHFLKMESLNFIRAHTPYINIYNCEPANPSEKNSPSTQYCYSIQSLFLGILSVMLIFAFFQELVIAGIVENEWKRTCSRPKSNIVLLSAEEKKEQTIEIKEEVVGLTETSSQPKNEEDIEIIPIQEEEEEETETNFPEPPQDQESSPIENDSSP
# Measurement protocol: FACS on Raji cells
Measured attribute: pEC50
Reminder that pEC50 is minus the log10 of a molar concentration.

Request: Request the reported pEC50 associated with BS3/20-001 (bispecific antibody, V domains shown, also called CD3×CD20 bispecific antibody) VH 1: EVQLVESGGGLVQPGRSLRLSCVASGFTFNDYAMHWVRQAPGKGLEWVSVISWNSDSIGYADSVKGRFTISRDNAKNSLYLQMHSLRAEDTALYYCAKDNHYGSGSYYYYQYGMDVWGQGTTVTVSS VH 2: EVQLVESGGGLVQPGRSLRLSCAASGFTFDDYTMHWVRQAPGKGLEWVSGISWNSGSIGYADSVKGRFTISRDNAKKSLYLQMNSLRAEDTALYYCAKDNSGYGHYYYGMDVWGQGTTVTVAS VL: AEIVMTQSPATLSVSPGERATLSCRASQSVSSNLAWYQQKPGQAPRLLIYGASTRATGIPARFSGSGSGTEFTLTISSLQSEDFAVYYCQHYINWPLTFGGGTKVEIK
Response: 7.22
